Origin of the recorded values: patent US11111249B2

Assign pIC50 to each entry below.
Molecular target: CYP3A4 (Homo sapiens)
Construct: Human liver microsomes (Corning Gentest); tissue Corning Gentest
Sequence (P08684 whole entry): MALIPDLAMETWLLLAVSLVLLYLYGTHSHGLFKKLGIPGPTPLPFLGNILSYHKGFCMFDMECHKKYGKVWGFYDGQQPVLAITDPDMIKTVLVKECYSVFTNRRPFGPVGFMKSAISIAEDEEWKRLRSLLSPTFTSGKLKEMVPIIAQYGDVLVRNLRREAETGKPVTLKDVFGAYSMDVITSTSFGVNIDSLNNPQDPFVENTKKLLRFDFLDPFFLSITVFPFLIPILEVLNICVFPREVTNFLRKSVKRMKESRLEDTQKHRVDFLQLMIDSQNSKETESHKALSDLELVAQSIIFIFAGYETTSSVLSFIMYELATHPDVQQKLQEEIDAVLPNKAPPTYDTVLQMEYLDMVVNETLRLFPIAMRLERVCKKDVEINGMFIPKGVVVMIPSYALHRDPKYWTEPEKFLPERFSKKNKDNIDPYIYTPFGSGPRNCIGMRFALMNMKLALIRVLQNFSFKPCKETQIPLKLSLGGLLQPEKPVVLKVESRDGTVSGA
Assay: Inhibition of the midazolam metabolic site on human liver microsome CYP3A4
Settings: human liver microsomes, midazolam substrate, 30 minutes
pIC50 field: float, defined as -log10 of concentration (mol/L).

Given the entry CCCCOc1nc(N)c2[nH]nc(Cc3ccc(CN4CCCC4)cc3)c2n1 [Embodiment 1] , what pIC50 was observed with CYP3A4 (Homo sapiens)? 4.78

Again, but for CCCCOc1nc(N)c2[nH]cc(Cc3ccc(CN4CCCC4)cc3)c2n1 [Embodiment 21 of WO2016023511] 5.99

* * *

Molecular target: human TLR8 (Homo sapiens, UniProt Q9NR97)
Sequence (Q9NR97 27-1041): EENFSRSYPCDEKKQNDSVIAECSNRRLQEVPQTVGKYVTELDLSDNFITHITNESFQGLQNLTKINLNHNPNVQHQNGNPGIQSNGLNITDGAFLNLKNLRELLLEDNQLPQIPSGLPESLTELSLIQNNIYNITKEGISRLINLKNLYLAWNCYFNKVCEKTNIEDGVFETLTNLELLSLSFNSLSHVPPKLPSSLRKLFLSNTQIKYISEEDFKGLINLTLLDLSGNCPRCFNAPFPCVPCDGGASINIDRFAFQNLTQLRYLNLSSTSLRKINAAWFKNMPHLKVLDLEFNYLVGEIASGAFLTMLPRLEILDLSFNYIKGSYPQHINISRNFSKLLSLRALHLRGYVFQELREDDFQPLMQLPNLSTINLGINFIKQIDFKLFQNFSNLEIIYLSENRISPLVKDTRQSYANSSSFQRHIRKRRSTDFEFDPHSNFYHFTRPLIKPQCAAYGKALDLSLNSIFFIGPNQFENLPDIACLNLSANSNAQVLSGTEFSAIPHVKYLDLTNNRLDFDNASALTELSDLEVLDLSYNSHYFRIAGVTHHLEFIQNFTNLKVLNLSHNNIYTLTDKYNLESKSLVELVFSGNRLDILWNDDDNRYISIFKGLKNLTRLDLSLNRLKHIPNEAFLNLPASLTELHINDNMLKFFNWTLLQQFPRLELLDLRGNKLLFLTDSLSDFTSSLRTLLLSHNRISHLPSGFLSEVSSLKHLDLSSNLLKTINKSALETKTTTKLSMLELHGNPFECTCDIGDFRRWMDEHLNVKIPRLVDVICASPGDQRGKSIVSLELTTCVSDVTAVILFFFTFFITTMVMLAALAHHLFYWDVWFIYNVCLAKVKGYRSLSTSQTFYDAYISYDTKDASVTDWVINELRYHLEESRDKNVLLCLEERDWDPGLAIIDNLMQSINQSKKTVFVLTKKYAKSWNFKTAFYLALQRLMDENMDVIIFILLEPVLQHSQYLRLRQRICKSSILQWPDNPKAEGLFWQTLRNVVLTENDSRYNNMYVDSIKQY
Assay: Activation of hTLR8 in HEK-Blue hTLR8 stably transfected cells
Settings: OD 620 nm, 6-16 hours
measurementKind: EC50 (µM)
The reply should be a number in µM, with the unit left off.

GET /values?readout=EC50&item= "CCCCOc1nc(N)c2[nH]nc(Cc3ccc(CN4CCCC4)cc3)c2n1" 5.22

Again, but for "CCCCOc1nc(N)c2[nH]cc(Cc3ccc(CN4CCCC4)cc3)c2n1" 12.5

* * *

Molecular target: CYP2D6 (Homo sapiens, UniProt P10635)
Construct: Human liver microsomes (Corning Gentest); tissue Corning Gentest
Sequence (P10635 whole entry): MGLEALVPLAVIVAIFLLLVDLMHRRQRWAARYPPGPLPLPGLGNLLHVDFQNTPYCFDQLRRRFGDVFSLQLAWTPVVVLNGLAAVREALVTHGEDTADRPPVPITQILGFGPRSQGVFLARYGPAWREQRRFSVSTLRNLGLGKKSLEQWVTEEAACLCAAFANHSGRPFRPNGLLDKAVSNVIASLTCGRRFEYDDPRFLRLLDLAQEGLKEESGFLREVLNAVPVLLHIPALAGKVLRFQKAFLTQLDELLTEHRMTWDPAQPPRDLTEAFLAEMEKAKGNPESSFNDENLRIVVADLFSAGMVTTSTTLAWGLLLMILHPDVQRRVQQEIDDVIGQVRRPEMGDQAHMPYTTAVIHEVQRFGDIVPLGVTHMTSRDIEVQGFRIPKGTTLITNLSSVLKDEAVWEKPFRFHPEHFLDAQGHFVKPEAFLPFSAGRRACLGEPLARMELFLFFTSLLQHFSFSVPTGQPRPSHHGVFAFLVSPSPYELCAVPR
Assay: Inhibition of human liver microsome CYP2D6 (dextromethorphan substrate)
Settings: human liver microsomes, 30 minutes, read-out: IC50 for the metabolic site on CYP2D6
measurementKind: IC50 (µM)
The reply should be a number in µM, with the unit left off.

GET /values?readout=IC50&item= "CCCCOc1nc(N)c2[nH]cc(Cc3ccc(CN4CCCC4)cc3)c2n1" 5.3
